- measured target: UniProtKB P41231
- Sequence (P41231 whole entry): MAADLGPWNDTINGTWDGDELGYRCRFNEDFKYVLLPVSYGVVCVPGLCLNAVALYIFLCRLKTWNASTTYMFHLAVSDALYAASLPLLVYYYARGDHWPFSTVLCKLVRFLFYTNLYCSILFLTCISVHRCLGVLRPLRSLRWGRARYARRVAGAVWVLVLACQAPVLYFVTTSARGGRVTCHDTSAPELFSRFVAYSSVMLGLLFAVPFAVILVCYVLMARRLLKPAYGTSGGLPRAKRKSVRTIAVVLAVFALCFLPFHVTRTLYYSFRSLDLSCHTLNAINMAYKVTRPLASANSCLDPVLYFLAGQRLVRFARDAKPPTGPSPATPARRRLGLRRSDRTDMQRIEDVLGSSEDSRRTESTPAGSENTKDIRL
- assay procedure: Agonist activity at human recombinant P2Y2 receptor expressed in human 1321N1 cells assessed as [3H]inositol phosphate intracellular accumulation by scintillation proximity assay
- Type: functional, cell-based
I'd be grateful if you could share measured pEC50 for these entries.
Scale explanation: pEC50 corresponds to minus log10 of a concentration expressed in moles per litre.

Bench note: what pEC50 did O=c1[nH]c(=S)ccn1[C@@H]1O[C@H](COP(=O)(O)OP(=O)(O)OP(=O)(O)O)[C@@H](O)[C@H]1O show?
7.59

Please look up its pEC50: O=c1ccn([C@@H]2O[C@H](COP(=O)(O)OP(=O)(O)C(F)(F)P(=O)(O)O)[C@@H](O)[C@H]2O)c(=O)[nH]1
5.31

Find the recorded pEC50 belonging to O=C(Cn1c(=O)ccn([C@@H]2O[C@H](COP(=O)(O)OP(=O)(O)C(F)(F)P(=O)(O)O)[C@@H](O)[C@H]2O)c1=O)c1ccccc1 and report it.
5.92

Entry source: ChEMBL document CHEMBL1765086
